Known Threshold of tumor cell numbers for HPV-16 detection of a selection of molecules
Tested on: HPV-16
Assay Name: qPCR sensitivity against HPV-HNSCC tumor samples diluted among 10 ng normal human DNA
Run Conditions: Sample # 20
Measurement Kind: Threshold of tumor cell numbers for HPV-16 detection

| Molecule | Measured Value |
| --- | --- |
| E7: previously designed (historical) HPV-16 E7 primers and Taqman probe, SEQ ID NO: 10-12; part of CLIA test (nucleic acid, Taqman probe, labels not given here, part of CLIA test) DNA 1: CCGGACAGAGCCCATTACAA DNA 2: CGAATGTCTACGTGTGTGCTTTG DNA 3: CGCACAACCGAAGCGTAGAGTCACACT | 1.2 tumor cells |
| BR E1-5: HPV-16 E1 region primer/probe set, SEQ ID NO: 40-42 (same as SEQ ID NO: 1-3) (nucleic acid, chemistry not given here) DNA 1: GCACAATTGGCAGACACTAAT DNA 2: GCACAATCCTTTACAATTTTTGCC DNA 3: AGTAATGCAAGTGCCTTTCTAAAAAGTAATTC | 3.0 tumor cells |
| BR E6-1: HPV-16 E6 region (172-373 bp) primer/probe set, SEQ ID NO: 58-60 (nucleic acid, chemistry not given here) DNA 1: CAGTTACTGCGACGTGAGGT DNA 2: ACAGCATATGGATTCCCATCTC DNA 3: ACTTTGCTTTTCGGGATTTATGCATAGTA | 1.2 tumor cells |
